System: NCI-H522
Experiment: NCI tumour cell line growth inhibition, 48 h
Activity calls are given as the source filed them. Rule as the data show it: active = GI50 up to about 1.1 µM and inactive = higher.
Would you mind telling me the reported GI50 of each entry?

Find the recorded GI50 belonging to COC(=O)[C@]12CC[C@H]3CC[C@H]([C@H]31)[C@H](c1ccccc1)N2 and report it.
20.5 µM (inactive)

Find the recorded GI50 belonging to CCOC(=O)N/N=C(/N)c1cccc(Br)c1 and report it.
> 100 µM (inactive)

Find the recorded GI50 belonging to COc1ccc(C(=O)N2CCN(c3ccc4c(c3)OCC(=O)N4)CC2)cc1OC and report it.
71.1 µM (inactive)

Find the recorded GI50 belonging to COc1ccc(-c2csc3c2[N+]2(C)C=CC=C2C3N2CCCC2)cc1 (centres undefined) and report it.
2.43 µM (inactive)

###

Tested on: MDA-MB-231
Assay: NCI tumour cell line growth inhibition, 48 h
The source made the active and inactive calls. Cut-off read from the data, not from the text of the source: active = GI50 up to about 1.1 µM and inactive = higher.
Would you mind telling me the reported GI50 of each entry?

Find the recorded GI50 belonging to Cc1ccc(-c2cc(-c3ccc(Cl)cc3)nc(/N=C3\C(=O)N(CN4CCOCC4)c4ccc(Cl)cc43)n2)cc1 and report it.
30 µM (inactive)

Find the recorded GI50 belonging to CCN(CC)CCCNc1c2c(Cl)cc(Cl)cc2nc2nc(O)nc(C)c12 and report it.
18.5 µM (inactive)

Find the recorded GI50 belonging to CCCc1cc(=O)oc2c3c(c4c(c12)OC(C)(C)CC4)O[C@@H](C)[C@H](C)[C@H]3O and report it.
2.16 µM (inactive)

Find the recorded GI50 belonging to O=[N+]([O-])c1cccnc1NCC1(CO)CC(Cc2ccccc2)C1 (stereo unspecified) and report it.
> 100 µM (inactive)

Find the recorded GI50 belonging to CN(C)CC1CCCC1=O (stereo unspecified) and report it.
2.64 µM (inactive)

Find the recorded GI50 belonging to Cc1nc2ccc(S(=O)(=O)Nc3nccs3)cc2c(=O)n1NS(=O)(=O)c1nccs1 and report it.
> 100 µM (inactive)

Find the recorded GI50 belonging to COc1ccc(C(=O)N2CCN(c3ccc4c(c3)OCC(=O)N4)CC2)cc1OC and report it.
> 100 µM (inactive)

Find the recorded GI50 belonging to CC(C(=O)NCCNC(=O)CCC(=O)N(C)O)C(=O)NCCNC(=O)CCC(=O)N(C)O and report it.
> 100 µM (inactive)

Find the recorded GI50 belonging to C/C(NC(=O)c1ccccc1)=C(/C(=O)c1ccccc1)[C@@H]1OC(C)(C)O[C@@H]1[C@H]1COC(C)(C)O1 and report it.
23.7 µM (inactive)

Find the recorded GI50 belonging to CCN(CCO)C(=O)C1(c2ccccc2)CCCCC1 and report it.
> 10 µM (inactive)

Find the recorded GI50 belonging to COc1ccc(/C=N/n2c(C)n[nH]c2=O)c(OC)c1 and report it.
> 100 µM (inactive)

Find the recorded GI50 belonging to COC1C(OC(=O)/C=C/C=C/C=C/C=C\C(=O)O)CCC2(CO2)C1C1(C)OC1CC=C(C)C (stereo unspecified) and report it.
> 100 µM (inactive)

Find the recorded GI50 belonging to N#Cc1nc(C2CCC(=O)O2)oc1N (stereo unspecified) and report it.
> 100 µM (inactive)

Find the recorded GI50 belonging to CCOC(=O)c1cn2c(n1)sc1cc([N+](=O)[O-])ccc12 and report it.
38.5 µM (inactive)

Find the recorded GI50 belonging to CC(C)=CCC[C@@H](C)C1=C(Nc2ccccc2F)C(=O)C(C)=C(O)C1=O and report it.
4.53 µM (inactive)

Find the recorded GI50 belonging to O=S(=O)([N-]c1nc2ccccc2nc1-[n+]1ccccc1)c1ccccc1 and report it.
28.9 µM (inactive)

Find the recorded GI50 belonging to O=C1N=NC(=O)N1c1cc(C(F)(F)F)cc(C(F)(F)F)c1 and report it.
2.38 µM (inactive)

Find the recorded GI50 belonging to Cc1ccc(S(=O)(=O)N/N=C2\C=C[C@]3(CC2)C(=O)N(C)c2ccccc23)cc1 and report it.
> 100 µM (inactive)

Find the recorded GI50 belonging to Cc1nc2n(c1/C=C1/C(=O)Nc3cccc(Cl)c31)CCS2 and report it.
18.7 µM (inactive)

Find the recorded GI50 belonging to NC(Cc1ccnnc1)C(=O)O (stereo unspecified) and report it.
> 100 µM (inactive)

Find the recorded GI50 belonging to CN(C)Cc1cc(/N=N/c2ccc(Cl)cc2)ccc1OC(=O)c1ccccc1 and report it.
14.1 µM (inactive)
